- test-name: Dog pharmacokinetic studies
- Format: in vivo, male Beagle dogs
- run-conditions: male, Beagle, plasma, PO 1 mg/kg
// values below are reported Tmax
recorded-metric: Tmax (min)

{"columns": ["structure", "recorded-metric", "result-number"],
 "data": [
  ["CC(C)(C)NC[C@H](O)c1cccc(C(F)(F)F)n1", "Tmax", 30],
  ["CC(C)(C)NC[C@H](O)c1cccc(C#N)n1", "Tmax", 19.8]
]}

###

- test-name: Rat pharmacokinetic studies
- Type: in vivo, male SD rats
- run-conditions: male, SD, plasma, IV 1 mg/kg

{"columns": ["structure", "C0 [ng/mL]"],
 "data": [
  ["CC(C)(C)NC[C@H](O)c1cccc(C#N)n1", 468],
  ["CC(C)(C)NC[C@H](O)c1cccc(C(F)(F)F)n1", 388]
]}
